Entries annotated with measured growth inhibition
Test: NCI Yeast Anticancer Drug Screen. Data for the bub3 strain (AID 167)
Conditions: S. cerevisiae bub3 mutant strain, at 50.0 µM, active compounds read high
Experimental: Growth inhibition of yeast strains with defined genetic alterations is measured as a screen for potential anti-cancer activity. Selected strains with alterations in DNA damage repair or cell cycle control were exposed to compounds and growth inhibition was measured relative to vehicle treated controls. The strain used in this assay is bub3
The panel holds about 79,000 compounds, 15% with a hit somewhere; the sample as a whole holds those more often.

{"columns": ["Compound", "Scale unit", "growth inhibition"],
 "data": [
  ["O=C1c2[nH]c3ccccc3c2CN1CCc1ccccc1", "%", -4.45],
  ["COc1cc(C(=O)C/C(CCC(=O)Nc2ccc(Cl)cc2Cl)=N/NC(=O)C(N)=O)ccc1O", "%", -1.45],
  ["COc1ccc(-c2nc(N)nc3c2CN(CCC(=O)O)C3=O)cc1", "%", 7.45],
  ["COC(=O)NC1=Nc2ccc(Cl)cc2NS1", "%", 22.1],
  ["NCC(=O)Nc1ccc(Cl)cc1C(=O)c1ccc[nH]1", "%", -53.5],
  ["C=CCOc1cc(NC(=S)c2ccoc2C)ccc1OC", "%", -3.35],
  ["NC(CCCOS(=O)(=O)O)Cc1ccc2ccccc2c1 (configuration not stated)", "%", 3.55],
  ["COc1cccc(Oc2cccc[n+]2CC(C)=O)c1", "%", 0.3],
  ["C[N+](C)(C)CC(=O)N/N=C(/Cc1nc2ccc([N+](=O)[O-])cc2[nH]c1=O)C(=O)Nc1cc(C(F)(F)F)ccc1Cl", "%", -5.4],
  ["CCCCCCCCCCCCCCCCSCCOC(=O)C1C2CCC(O2)C1C(=O)O (configuration not stated)", "%", 30.2],
  ["Cc1onc(-c2ccccc2)c1NC(=O)OC(C)c1cccnc1 (configuration not stated)", "%", 18.1],
  ["O=C1C2=C(c3ccccc31)C(c1ccc([N+](=O)[O-])cc1)NC(=S)N2 (configuration not stated)", "%", -3.6],
  ["N#Cc1c(O)c(C=O)c(=O)n2c1[nH]c1ccccc12", "%", 4.05],
  ["Cc1cc(C)c(C)c(CN)c1C", "%", 13.7],
  ["O=C(C(=O)c1cc(-c2ccccc2)nc2ccc3ccccc3c12)c1ccccc1", "%", 30.1],
  ["CSc1nc2c(c(=O)n1C)N=C(c1ccccc1)[C@H](C(CC(=O)c1ccccc1)c1ccccc1)C(c1ccccc1)N2 (some centres not stated)", "%", 14.6],
  ["CCOC(=O)c1ccc2c(c1)C(C)(SC)C(=O)N2 (configuration not stated)", "%", -6.55]
]}

----------
test: NCI Yeast Anticancer Drug Screen. Data for the mec2-1 strain (AID 157); details: S. cerevisiae mec2-1 strain, at 50.0 µM, active compounds read high
Compounds without any hit were thinned out: in the full panel of roughly 79,000, 15% have a hit.
Measured growth inhibition, listed per entry.
Measured metric: growth inhibition (%)

{"columns": ["Compound", "Number"],
 "data": [
  ["COc1ccc2ccccc2c1", -30],
  ["O=C(Nc1ccccc1Cl)Oc1ccc(C(=O)c2ccccc2)cc1", -13.3],
  ["NC(=O)Nc1ccc(S(=O)(=O)c2ccc(N)cc2)cc1", -5.2],
  ["COc1ccc(NC(=O)CC(=O)NN)cc1", -0.05],
  ["O=Ic1ccccc1", 0.2],
  ["CC1=C(/C=C/Cl)CC(Cl)C(C)(Cl)C1 (stereo not given)", -10.4],
  ["Cc1c(C)c(C(=O)O)c(C)c(C)c1C(=O)O", -8.1],
  ["O=C1OC2(c3ccc(O)cc3Oc3cc(O)ccc32)C2C3CCC(O3)C12 (stereo not given)", 38.2],
  ["CC(=O)OCC(OC(C)=O)C(OC(C)=O)c1cnn(-c2ccccc2)n1 (stereo not given)", -1.5],
  ["CCCCCCC1(/C=C\\c2ccccc2Cl)OCCO1", 31.5],
  ["COc1ccc(/C=C2\\CCC(C)(CN(C)C)C2=O)cc1 (stereo not given)", 14.6],
  ["Cn1c(=O)c2[nH]c(CCCCCc3nc4c([nH]3)c(=O)n(C)c(=O)n4C)nc2n(C)c1=O", 7.15],
  ["CC(C)(C)CNC(=S)Nc1ccccc1", 2.6],
  ["O=C(O)C1CCCCCC1", 0.65],
  ["NC(=S)c1ccccc1N=Cc1cccs1", 16.1],
  ["C1CCN=C(N2CCCCCC2)CC1", -4.2],
  ["COc1cc(Cl)ccc1NC(=O)Oc1ccc(-c2ccccc2)cc1Cl", 99.5],
  ["Cc1cc(C)c2[nH]c(=O)c(Br)c(C)c2c1", 11.8],
  ["CCOC(=O)CNC(=O)C(Cc1ccccc1)NC(=O)c1ccccc1[N+](=O)[O-] (stereo not given)", 14.3],
  ["CC1Oc2ccc3ccccc3c2C(C)N1C (stereo not given)", 1.9]
]}

----------
assay: NCI Yeast Anticancer Drug Screen. Data for the cln2 rad14 strain (AID 165);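 also: 0% = growth equal to vehicle treated cultures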; conditions: S. cerevisiae cln2 rad14 strain, at 50.0 µM, active compounds read high
This is part of a sample that, as a whole, favours compounds with a hit. Of some 79,000 tested, about 15% had one in any assay. Where a SMILES comes first, the peptide text is derived from it.

{"columns": ["Molecule", "Scale unit", "growth inhibition"],
 "data": [
  ["CC1(O)CCC(C(C)(C)C)CC1 (stereo not drawn)", "%", 2.05],
  ["COC(=O)C1=C(C)NC(C)=C(C(=O)OC)C1c1ccc(NC(C)=O)cc1", "%", -6.25],
  ["CC(=O)Nc1cc(=O)[nH]c2c1CCC2", "%", -16.4],
  ["COC(=O)C(C#N)=C(C)C", "%", 19.9],
  ["CN(C)CC1CCC/C(=C\\c2ccccc2)C1=O (stereo not drawn)", "%", 32.5],
  ["COc1cc(C2C(Cl)C(=O)N2NC(=O)c2ccc(N)cc2)ccc1O (stereo not drawn)", "%", -3.8],
  ["CCOC(=O)c1c(O)[nH]c(=O)c(CC)c1C", "%", -16.4],
  ["CCC(=O)Nc1cc(Cl)c(Cl)cc1C", "%", -85.8],
  ["COc1cccc(C2c3cc4c(cc3OC(NNC(N)=O)C2C)OCO4)c1O (stereo not drawn)", "%", 9.9],
  ["Cc1ccc(NC(=O)CSc2nnc(Cc3ccccc3)o2)cc1", "%", -20.1],
  ["CCN(CC)c1ccc2c(c1)Oc1ccc(N(C(C)=O)c3ccccc3)cc1C21OC(=O)c2ccccc21 (stereo not drawn)", "%", 31],
  ["O=C1c2ccccc2C(=O)N1CCSCCSCCN1C(=O)c2ccccc2C1=O", "%", 14.6],
  ["c1ccc(Cn2cccc2N=Nc2ccccc2)cc1", "%", 6.8],
  ["CC1C/C(=C\\c2ccccc2)C(=O)/C1=C/c1ccccc1 (stereo not drawn)", "%", -6.4],
  ["Cc1ccc(SCC(OCn2cnc3c(Cl)nc(N)nc32)[C@H](C)F)cc1 (stereo partly drawn)", "%", 24.9],
  ["O=C(O)c1ccc[n+](Cc2ccccc2)c1", "%", -8.2],
  ["CN(Cc1cnc2nc(N)nc(N)c2n1)c1ccc(C(=O)NC(CCC(=O)OCc2cc3c(cc2Cl)OCO3)C(=O)OCc2cc3c(cc2Cl)OCO3)cc1 (stereo not drawn)", "%", 44.6],
  ["CC1NC(=O)C2CCCN2C(=O)C2CCCN2C(=O)C(C(C)C)NC(=O)C(Cc2ccccc2)NC(=O)C(Cc2ccccc2)NC(=O)C2CCCN2C(=O)C2CCCN2C(=O)C(Cc2ccccc2)NC(=O)C(Cc2ccccc2)NC1=O (stereo not drawn) (cyclo(AFFPPFFVPP); configuration not given here)", "%", 2.8],
  ["COC(=O)c1ccccc1NC(=NC1CCCCCC1)NS(=O)(=O)c1ccc(C)cc1", "%", -8.15],
  ["COC(=O)C(CNc1ccc(S(N)(=O)=O)cc1)=[N+]=[N-]", "%", -12.8],
  ["CCOC(=O)C(/C=C/c1cc(C)c(C)c(C)c1)(NC=O)C(=O)OCC", "%", 5.75],
  ["CCOC(=O)CN1C(=O)CCC1=O", "%", -3.5],
  ["O=C(c1nc2ccc([N+](=O)[O-])cc2[nH]c1=O)C(O)c1ccc2c(c1)OCO2 (stereo not drawn)", "%", 11.1]
]}

----------
experiment: NCI Yeast Anticancer Drug Screen. Data for the sgs1 mgt1 strain (AID 161);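 also: 0% = growth of cultures given vehicle only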; settings: S. cerevisiae sgs1 mgt1 strain, at 50.0 µM, active compounds read high
This is part of a sample that, as a whole, favours compounds with a hit. Of some 79,000 tested, about 15% had one in any assay.
Documented growth inhibition across a set of compounds

{"columns": ["Compound", "Scale unit", "growth inhibition"],
 "data": [
  ["CCCN(CCN(CC)CC)C(=O)N(CC)CC", "%", 3.2],
  ["COc1ccc(C2c3cc4c(cc3OC(C)(OC)C2C)OCO4)c(OC)c1OC (stereo unspecified)", "%", -4.75],
  ["Nc1nc(N)c(N=Nc2cc(Cl)c([N+](=O)[O-])cc2Cl)c(=O)[nH]1", "%", -10.9],
  ["Cc1cc(C(=O)O)c2cc(Br)ccc2n1", "%", 15.2],
  ["Nc1nnc2c(=O)[nH]cnc2n1", "%", -29.2],
  ["CC(=O)NC1=NC(=O)/C(=C/c2ccc(/C=C3/C(=O)N=C(NC(C)=O)N3C)cc2)N1C", "%", 14.4],
  ["CC(=O)OC(C)(C)c1ccc2c(c1)C(=O)C[C@@H]1[C@](C)(C#N)CCC[C@]21C", "%", -2.75],
  ["CCOC(=O)/C(=C\\n1c(=O)[nH]c(=O)[nH]c1=S)C(=O)c1ccccc1", "%", -9.25],
  ["O=C(CCN1C(=O)c2ccccc2C1=O)c1cnc(N2C(=O)c3ccccc3C2=O)[nH]1", "%", 11.4],
  ["CC(C)(C)CC(C)(C)NC(=O)CCl", "%", 2.6],
  ["O=C(O)CCC(=O)Nc1cccc(C(F)(F)F)c1", "%", -3.15],
  ["Br/C=C\\Br", "%", -7.45],
  ["OC1CCC2=C(C1)C1CCC2C1 (stereo unspecified)", "%", -11.8],
  ["COc1ccc(OC)c(C(=O)C=C(C(F)(F)F)C(F)(F)F)c1", "%", -3.8],
  ["FC(F)(F)c1ccc2nc[nH]c2c1", "%", -3.15],
  ["NC(=O)SCC(=O)Nc1ccccc1O", "%", 2.25],
  ["COC1=CC(=O)c2ccc(C(C)C)cc2C1(C)C1=NC(C)(C)CO1 (stereo unspecified)", "%", -0.85],
  ["O=C(Nc1ccccn1)c1ccccc1", "%", 15.6],
  ["CSCCC(NCc1c(O)ccc2ccc(=O)oc12)C(=O)O (stereo unspecified)", "%", -27.9],
  ["CC1(C)C2CCC(CCOC(=O)COc3ccc(Cl)cc3)C1C2 (stereo unspecified)", "%", 12.1],
  ["CCCCCC(=O)N1CCCCC1CC (stereo unspecified)", "%", -19.6],
  ["O=C1CCCCCCCCCCC1Sc1ccccc1 (stereo unspecified)", "%", -6.8],
  ["Cc1n[nH]c(=S)n1C", "%", -4.25],
  ["COc1ccc2[nH]cc(C=O)c2c1", "%", -1.65],
  ["Nc1nnc2nc(C(C(=O)c3cccc(O)c3)c3nc4nnc(N)n4[nH]c3=O)c(=O)[nH]n12", "%", -7.05],
  ["Oc1ccc2cc(O)ccc2c1", "%", -1.7],
  ["CN(C)CCNC(=O)c1ccc(NC(=O)c2nc([N+](=O)[O-])cn2C)cc1", "%", 4.9],
  ["CC(C)(C)c1ccc(-c2nc3ccc(Cl)cc3c(=O)o2)cc1", "%", -7.85],
  ["O=C(Oc1ccccc1)c1ccc(C(=O)Oc2ccccc2)cc1", "%", 15.8],
  ["O=C(/C=C/c1ccccc1)c1cccc([N+](=O)[O-])c1", "%", 21.4],
  ["CCCCC(CC)CN(CC(CC)CCCC)C(=O)C(C)OC(=O)C(CC)CCCC (stereo unspecified)", "%", 18]
]}
